Reference source for all entries: PubChem BioAssay AID1159580

Below is a list of entries, each paired with its recorded normalized growth value.
Assay: chemical genetic growth profiling, strain panel (AID 1159580);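 note: tested at 20 µM; growth read once vehicle control cultures reached saturation at 30 °C; 1 = growth at the plate median or of vehicle wells; lower values mean less growth of the strain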
Conditions: S. cerevisiae deletion strains, growth OD, locus YBR279W, strain paf1, active compounds read low
Out of some 5,500 compounds screened, about 2,000 (36%) were called active. About 18% were inconclusive and are not listed. This is one part of the list.
// response body must contain only the number

CC(C)NCC(O)c1cc(O)cc(O)c1 (configuration not stated)	0.992

Asked: # input compound: O=C(C1CCCCC1)N1CC(=O)N2CCc3ccccc3C2C1 (configuration not stated) ; wanted: its normalized growth
Given back: 1.01

Asked: # input compound: Cc1cccc(Nc2ccccc2C(=O)O)c1C ; wanted: its normalized growth
Given back: 0.921

Asked: # input compound: CO/N=C(\C(=O)NC1C(=O)N2C(C(=O)O)=C(COC(N)=O)CSC12)c1ccco1 (configuration not stated) ; wanted: its normalized growth
Given back: 0.975

Asked: # input compound: CCCCN1CCCCC1C(=O)Nc1c(C)cccc1C (configuration not stated) ; wanted: its normalized growth
Given back: 0.994

Asked: # input compound: CC(=O)Oc1c(C)cccc1C(=O)O ; wanted: its normalized growth
Given back: 1.01
